Value source: the NIST ThermoML archive (doi:10.1021/je0302304)

# assay-info: xn = mol fraction of the nth substance listed
# experimental-context: 298.15 K; 101.32 kPa; Liquid; x1 = 0.0305
Can you tell me mass density for the items I'm about to list?
Write down the numeric answer in kg/m3 and omit the unit.

Request: Recorded mass density of COCCOCCOCCOCCOC [2,5,8,11,14-pentaoxapentadecane] + CCO , please.
Result: 810.8

Request: Recorded mass density of COCCOCCOC [2,5,8-trioxanonane] + CCO , please.
Result: 796.9

Request: Recorded mass density of COCCOC [1,2-dimethoxyethane] + CCO , please.
Result: 789.8

Request: Recorded mass density of COCCOCCOCCOC [2,5,8,11-tetraoxadodecane] + CCO , please.
Result: 803.7
